We begin with a simple list: items and their reported pKd.
molecular target: T1, Clostridium difficile toxin A (Clostridioides difficile …, UniProt P16154); experiment: SPR; settings: both partners purified
T1 construct: also called TcdA
pKd: −log10 of the molar value.
property.measured: pKd

# binder, property.measured, readout.value
measured = [
    ("A26.8 VHH T56R, T103M (VHH, source: E. coli TG1, periplasmic extract, purified (IMAC, SEC)) VHH: QVKLEESGGGLVQAGGSLRLSCAASERTFSRYPVAWFRQAPGAEREFVAVISSTGRSTYYADSVKGRFTISRDNAKVTVYLQMNNLKREDTAVYFCAVNSQRMRLQDPNEYDYWGQGTQVTVSS", "pKd", 8.32),
    ("A26.8 VHH D107Y (VHH, source: E. coli TG1, periplasmic extract, purified (IMAC, SEC)) VHH: QVKLEESGGGLVQAGGSLRLSCAASERTFSRYPVAWFRQAPGAEREFVAVISSTGTSTYYADSVKGRFTISRDNAKVTVYLQMNNLKREDTAVYFCAVNSQRTRLQYPNEYDYWGQGTQVTVSS", "pKd", 7.36),
    ("A26.8 VHH Q101K, T103K (VHH, source: E. coli TG1, periplasmic extract, purified (IMAC, SEC)) VHH: QVKLEESGGGLVQAGGSLRLSCAASERTFSRYPVAWFRQAPGAEREFVAVISSTGTSTYYADSVKGRFTISRDNAKVTVYLQMNNLKREDTAVYFCAVNSKRKRLQDPNEYDYWGQGTQVTVSS", "pKd", 8.09),
    ("A26.8 VHH E110Q (VHH, source: E. coli TG1, periplasmic extract, purified (IMAC, SEC)) VHH: QVKLEESGGGLVQAGGSLRLSCAASERTFSRYPVAWFRQAPGAEREFVAVISSTGTSTYYADSVKGRFTISRDNAKVTVYLQMNNLKREDTAVYFCAVNSQRTRLQDPNQYDYWGQGTQVTVSS", "pKd", 7.47),
    ("A26.8 VHH R104W (VHH, source: E. coli TG1, periplasmic extract, purified (IMAC, SEC)) VHH: QVKLEESGGGLVQAGGSLRLSCAASERTFSRYPVAWFRQAPGAEREFVAVISSTGTSTYYADSVKGRFTISRDNAKVTVYLQMNNLKREDTAVYFCAVNSQRTWLQDPNEYDYWGQGTQVTVSS", "pKd", 6.78),
    ("A26.8 VHH D107N (VHH, source: E. coli TG1, periplasmic extract, purified (IMAC, SEC)) VHH: QVKLEESGGGLVQAGGSLRLSCAASERTFSRYPVAWFRQAPGAEREFVAVISSTGTSTYYADSVKGRFTISRDNAKVTVYLQMNNLKREDTAVYFCAVNSQRTRLQNPNEYDYWGQGTQVTVSS", "pKd", 7.67),
    ("A26.8 VHH T103K (VHH, source: E. coli TG1, periplasmic extract, purified (IMAC, SEC)) VHH: QVKLEESGGGLVQAGGSLRLSCAASERTFSRYPVAWFRQAPGAEREFVAVISSTGTSTYYADSVKGRFTISRDNAKVTVYLQMNNLKREDTAVYFCAVNSQRKRLQDPNEYDYWGQGTQVTVSS", "pKd", 8.08),
    ("A26.8 VHH Q101K, T103M (VHH, source: E. coli TG1, periplasmic extract, purified (IMAC, SEC)) VHH: QVKLEESGGGLVQAGGSLRLSCAASERTFSRYPVAWFRQAPGAEREFVAVISSTGTSTYYADSVKGRFTISRDNAKVTVYLQMNNLKREDTAVYFCAVNSKRMRLQDPNEYDYWGQGTQVTVSS", "pKd", 8.10),
    ("A26.8 VHH Q106L (VHH, source: E. coli TG1, periplasmic extract, purified (IMAC, SEC)) VHH: QVKLEESGGGLVQAGGSLRLSCAASERTFSRYPVAWFRQAPGAEREFVAVISSTGTSTYYADSVKGRFTISRDNAKVTVYLQMNNLKREDTAVYFCAVNSQRTRLLDPNEYDYWGQGTQVTVSS", "pKd", 6.21),
    ("A26.8 VHH T58K (VHH, source: E. coli TG1, periplasmic extract, purified (IMAC, SEC)) VHH: QVKLEESGGGLVQAGGSLRLSCAASERTFSRYPVAWFRQAPGAEREFVAVISSTGTSKYYADSVKGRFTISRDNAKVTVYLQMNNLKREDTAVYFCAVNSQRTRLQDPNEYDYWGQGTQVTVSS", "pKd", 7.87),
    ("A26.8 VHH T56R, Q101K, T103K (VHH, source: E. coli TG1, periplasmic extract, purified (IMAC, SEC)) VHH: QVKLEESGGGLVQAGGSLRLSCAASERTFSRYPVAWFRQAPGAEREFVAVISSTGRSTYYADSVKGRFTISRDNAKVTVYLQMNNLKREDTAVYFCAVNSKRKRLQDPNEYDYWGQGTQVTVSS", "pKd", 8.49),
    ("A26.8 VHH T54R (VHH, source: E. coli TG1, periplasmic extract, purified (IMAC, SEC)) VHH: QVKLEESGGGLVQAGGSLRLSCAASERTFSRYPVAWFRQAPGAEREFVAVISSRGTSTYYADSVKGRFTISRDNAKVTVYLQMNNLKREDTAVYFCAVNSQRTRLQDPNEYDYWGQGTQVTVSS", "pKd", 7.88),
]
